# measured_on: Recombinant, full length human FLAG-tagged ATM (Homo sapiens (Human), UniProt Q13315)
# Sequence (Q13315 whole entry): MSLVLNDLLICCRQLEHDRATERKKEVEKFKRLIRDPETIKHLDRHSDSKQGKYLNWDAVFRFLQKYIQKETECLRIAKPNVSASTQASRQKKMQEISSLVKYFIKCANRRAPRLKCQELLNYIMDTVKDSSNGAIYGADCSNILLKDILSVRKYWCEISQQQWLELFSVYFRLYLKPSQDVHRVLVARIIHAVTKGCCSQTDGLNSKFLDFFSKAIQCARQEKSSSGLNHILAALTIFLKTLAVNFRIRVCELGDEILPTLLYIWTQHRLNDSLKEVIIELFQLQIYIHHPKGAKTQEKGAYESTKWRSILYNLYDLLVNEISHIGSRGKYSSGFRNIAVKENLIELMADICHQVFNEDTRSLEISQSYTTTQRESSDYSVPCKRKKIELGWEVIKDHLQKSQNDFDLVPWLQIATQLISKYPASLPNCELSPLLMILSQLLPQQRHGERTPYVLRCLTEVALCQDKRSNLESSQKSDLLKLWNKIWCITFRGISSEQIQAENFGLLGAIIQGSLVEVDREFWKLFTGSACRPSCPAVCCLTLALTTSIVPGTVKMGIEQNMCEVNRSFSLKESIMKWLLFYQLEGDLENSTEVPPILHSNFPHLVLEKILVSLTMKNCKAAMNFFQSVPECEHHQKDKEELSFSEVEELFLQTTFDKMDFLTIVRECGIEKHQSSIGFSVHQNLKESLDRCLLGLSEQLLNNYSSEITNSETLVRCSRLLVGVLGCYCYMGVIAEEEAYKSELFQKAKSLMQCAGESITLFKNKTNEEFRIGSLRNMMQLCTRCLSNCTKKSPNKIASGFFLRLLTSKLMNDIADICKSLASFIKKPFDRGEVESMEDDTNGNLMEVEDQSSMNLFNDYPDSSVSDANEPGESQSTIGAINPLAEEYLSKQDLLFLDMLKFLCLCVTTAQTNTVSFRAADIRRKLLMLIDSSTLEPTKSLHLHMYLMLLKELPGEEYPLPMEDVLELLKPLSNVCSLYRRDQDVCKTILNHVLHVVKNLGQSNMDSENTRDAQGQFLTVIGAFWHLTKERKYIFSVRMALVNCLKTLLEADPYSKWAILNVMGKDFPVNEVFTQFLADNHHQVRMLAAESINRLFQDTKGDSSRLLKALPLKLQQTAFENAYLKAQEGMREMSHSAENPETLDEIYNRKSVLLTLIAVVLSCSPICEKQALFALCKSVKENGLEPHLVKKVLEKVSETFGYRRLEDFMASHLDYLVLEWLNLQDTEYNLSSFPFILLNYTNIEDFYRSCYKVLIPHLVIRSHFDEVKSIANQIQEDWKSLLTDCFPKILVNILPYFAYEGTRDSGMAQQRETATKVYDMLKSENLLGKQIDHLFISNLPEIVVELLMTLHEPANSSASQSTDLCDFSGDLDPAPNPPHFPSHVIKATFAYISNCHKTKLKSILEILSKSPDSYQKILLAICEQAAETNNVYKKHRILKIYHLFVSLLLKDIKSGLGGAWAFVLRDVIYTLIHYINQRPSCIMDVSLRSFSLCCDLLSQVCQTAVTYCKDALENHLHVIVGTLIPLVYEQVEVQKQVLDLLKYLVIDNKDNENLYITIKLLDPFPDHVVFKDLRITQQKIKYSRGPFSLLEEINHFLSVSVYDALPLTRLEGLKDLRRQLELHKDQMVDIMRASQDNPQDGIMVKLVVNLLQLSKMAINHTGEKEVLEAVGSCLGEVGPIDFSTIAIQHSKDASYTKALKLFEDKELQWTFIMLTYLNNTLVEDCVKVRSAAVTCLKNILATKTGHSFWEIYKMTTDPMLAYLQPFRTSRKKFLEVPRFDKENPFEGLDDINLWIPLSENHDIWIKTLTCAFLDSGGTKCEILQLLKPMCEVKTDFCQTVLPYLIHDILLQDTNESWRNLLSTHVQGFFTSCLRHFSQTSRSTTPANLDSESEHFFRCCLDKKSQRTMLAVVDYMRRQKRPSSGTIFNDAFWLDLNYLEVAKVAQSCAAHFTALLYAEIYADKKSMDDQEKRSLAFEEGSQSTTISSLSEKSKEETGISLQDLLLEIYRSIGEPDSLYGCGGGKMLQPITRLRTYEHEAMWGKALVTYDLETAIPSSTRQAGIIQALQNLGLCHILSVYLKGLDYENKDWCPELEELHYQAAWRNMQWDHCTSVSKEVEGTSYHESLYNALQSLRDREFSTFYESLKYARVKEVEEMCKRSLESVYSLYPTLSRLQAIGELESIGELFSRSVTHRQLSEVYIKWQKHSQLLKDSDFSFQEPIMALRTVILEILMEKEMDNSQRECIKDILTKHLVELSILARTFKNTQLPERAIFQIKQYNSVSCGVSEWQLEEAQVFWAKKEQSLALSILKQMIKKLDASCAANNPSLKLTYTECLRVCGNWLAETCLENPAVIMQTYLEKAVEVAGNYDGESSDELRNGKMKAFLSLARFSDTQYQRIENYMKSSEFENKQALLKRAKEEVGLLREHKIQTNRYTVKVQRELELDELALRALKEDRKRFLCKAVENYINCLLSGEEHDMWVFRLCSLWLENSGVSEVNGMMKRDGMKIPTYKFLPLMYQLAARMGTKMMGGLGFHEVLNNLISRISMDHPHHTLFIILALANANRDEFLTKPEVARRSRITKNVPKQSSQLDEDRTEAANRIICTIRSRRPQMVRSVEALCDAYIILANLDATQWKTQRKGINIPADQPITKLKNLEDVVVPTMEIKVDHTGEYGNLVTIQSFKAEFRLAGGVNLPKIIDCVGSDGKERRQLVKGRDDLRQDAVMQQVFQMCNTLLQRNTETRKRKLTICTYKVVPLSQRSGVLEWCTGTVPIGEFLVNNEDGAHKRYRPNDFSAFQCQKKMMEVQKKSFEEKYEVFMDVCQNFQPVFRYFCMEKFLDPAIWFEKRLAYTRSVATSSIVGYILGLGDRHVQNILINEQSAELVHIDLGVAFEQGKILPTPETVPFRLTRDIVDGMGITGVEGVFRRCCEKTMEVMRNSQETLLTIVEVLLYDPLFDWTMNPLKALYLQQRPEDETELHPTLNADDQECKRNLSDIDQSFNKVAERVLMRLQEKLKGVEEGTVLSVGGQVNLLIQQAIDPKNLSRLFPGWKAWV
# assay_procedure: ATM ELISA for p53 S15 phosphorylation
# recorded_conditions: 0.75 nM ATM, 25 nM p53, 10 μM ATP, 30 min at 20° C.; read-out: ATM BIO IC50
pIC50: −log10 of the molar value.
assay_metric: pIC50

# annotated cases, reported pIC50 shown
[in] Read the entry O=c1cc(N2CCOCC2)cc(N2C[C@@H]3CC[C@@H](C3)[C@@H]2Cc2ccccc2)[nH]1 [Example 134] and write its reported pIC50.
[out] 7.86

[in] Note down pIC50 recorded for O=c1cc(N2CCOCC2)nc(N2CC[C@@H](O)[C@@H]2Cc2ccccc2)[nH]1 [Example 258]
[out] 8.17

[in] For the molecule COc1cc(F)ccc1C[C@H]1CCCCCN1c1cc(N2CCOCC2)cc(=O)[nH]1 [Example 50] , give its reported pIC50.
[out] 7.64

[in] Provide one value: measured pIC50 of O=c1cc(N2CCOCC2)nc(N2CCC[C@@H]2Cc2ccc(Cl)c(Cl)c2)[nH]1 [Example 190]
[out] 8.38

[in] Return value of pIC50 for input COc1ccccc1C[C@H]1CCCN1c1cc(N2CCOCC2)cc(=O)[nH]1 [Example 7] , no commentary.
[out] 7.35

[in] Give pIC50 for O=c1cc(N2CCOCC2)cc(N2C[C@H]3CCC[C@H]3[C@@H]2Cc2ccccc2)[nH]1 [Example 123]
[out] 7.67

[in] Return pIC50 (reported value) for this molecule: O=c1cc(N2CCOCC2)cc(N2C[C@H]3C[C@H]3[C@@H]2Cc2ccccc2)[nH]1 [Example 43]
[out] 8.02

[in] Specify measured pIC50 for C[C@H]1CCN(c2nc(N3CCOCC3)cc(=O)[nH]2)[C@H]1Cc1ccccc1 [Example 261] .
[out] 7.21

[P] O=c1cc(N2CCOCC2)nc(N2CCCCC[C@@H]2Cc2cccc(F)c2F)[nH]1 [Example 223]
[Q] Cc1ccccc1C[C@H]1CCCCCN1c1cc(N2CCOCC2)cc(=O)[nH]1 [Example 25]
[R] COc1ccccc1C[C@H]1[C@@H](F)CCN1c1nc(N2CCO[C@H](C)C2)cc(=O)[nH]1 [Example 324]
[S] COc1c(F)cccc1C[C@H]1CCCCCN1c1nc(N2CCOCC2)cc(=O)[nH]1 [Example 231]
[in] Please list the entries, largest pIC50 first. Please express your ranking as an ordered list of the labels.
[out] R, Q, P, S

[I] C[C@@H]1CN(c2cc(=O)[nH]c(N3CCC[C@@H]3Cc3ccccc3)n2)C[C@@H](C)O1 [Example 347]
[II] C[C@@H]1CN(c2cc(=O)[nH]c(N3CCCCC[C@@H]3Cc3ccccc3)n2)CCO1 [Example 270]
[III] C[C@@H]1CN(c2cc(=O)[nH]c(N3CCCCC[C@@H]3Cc3cccc4c3OCC4)n2)CCO1 [Example 305]
[IV] CC1(C)CCCN(c2cc(N3CCOCC3)cc(=O)[nH]2)[C@@H](Cc2ccccc2)C1 [Example 76]
[V] O=c1cc(N2CCOCC2)nc(N2CCCCC[C@@H]2Cc2ccsc2)[nH]1 [Example 248]
[in] // smallest pIC50 at index 0, largest at the end # respond with the labels, arranged in the requested order
[out] IV, III, I, II, V

[a] O=c1cc(N2CCOCC2)nc(N2CCCC2Cn2cnc3ccccc32)[nH]1 (centres unmarked) [Example 192]
[b] O=c1cc(N2CCOCC2)nc(N2C[C@H]3C[C@H]3[C@@H]2Cc2ccc(F)cc2)[nH]1 [Example 209]
[in] # compare pIC50 for a vs b ; return the one with the smaller value To answer, give the label that identifies your chosen option.
[out] a
(a: 7.52, b: 8.05)

[I] C[C@@H]1CN(c2cc(=O)[nH]c(N3CC[C@@H](C)[C@@H]3Cc3ccccc3)n2)CCO1 [Example 294]
[II] C[C@H]1CCCN(c2nc(N3CCO[C@H](C)C3)cc(=O)[nH]2)[C@@H](Cc2ccc(F)cc2)C1 [Example 313]
[III] O=c1cc(N2CCOCC2)cc(N2CCC[C@@H]2Cc2ccc(F)cc2)[nH]1 [Example 16]
[IV] C[C@@H]1CN(c2cc(=O)[nH]c(N3CCCCC[C@@H]3Cc3ccccc3)n2)C[C@@H](C)O1 [Example 349]
[in] Please list these in order of increasing pIC50. Thank you! # answer = labels listed in requested order
[out] III, II, I, IV

[P] C[C@@H]1CN(c2cc(=O)[nH]c(N3CCCCC[C@@H]3Cc3cccs3)n2)CCO1 [Example 286]
[Q] CC(c1ccccc1)C1CCCN1c1nc(N2CCOCC2)cc(=O)[nH]1 (racemic) [Example 252]
[in] For this pair, P and Q , which shows a numerically higher pIC50? The response must carry the label of the picked entry.
[out] P
(P: 7.61, Q: 7.20)

[a] Cn1c(N2CCC[C@@H]2Cc2ccccc2)cc(N2CCOCC2)cc1=O [Example 173]
[b] C[C@@H]1CN(c2cc(=O)[nH]c(N3CCCCC[C@@H]3Cc3ccc(F)cc3)n2)CCO1 [Example 304]
[in] Pick one: a or b . Which has the bigger pIC50 number? Please respond with the label that marks your chosen entry.
[out] b

[P] C[C@@H]1CN(c2cc(=O)[nH]c(N3CCC[C@@H]3Cc3ccc(F)cc3)n2)CCO1 [Example 281]
[Q] COC[C@@H](C)Oc1ccc(C[C@H]2CCCN2c2cc(N3CCOCC3)cc(=O)[nH]2)cc1 [Example 145]
[R] O=c1cc(N2CCOCC2)cc(N2CCCC(F)(F)C[C@@H]2Cc2ccccc2)[nH]1 [Example 74]
[in] Order the records by pIC50, with each subsequent value no larger than the one before. Submit the labels in the order that the ranking request calls for.
[out] R, P, Q

[A] CC1OCCN(c2cc(=O)[nH]c(N3CCCC3Cc3ccccc3)n2)C1C (single isomer, unassigned) [Example 352]
[B] O=c1cc(N2CCOCC2)cc(N2CC[C@@H](OC(F)F)[C@@H]2Cc2ccccc2)[nH]1 [Example 90]
[in] Please compare: A and B . Report which one has the smaller pIC50 value. Response format: the label of the selected entry.
[out] B

Ref: patent US11685734B2
